# Target or system: HSP60/HSP10 (Homo sapiens)
# Sequence (P10809 whole entry): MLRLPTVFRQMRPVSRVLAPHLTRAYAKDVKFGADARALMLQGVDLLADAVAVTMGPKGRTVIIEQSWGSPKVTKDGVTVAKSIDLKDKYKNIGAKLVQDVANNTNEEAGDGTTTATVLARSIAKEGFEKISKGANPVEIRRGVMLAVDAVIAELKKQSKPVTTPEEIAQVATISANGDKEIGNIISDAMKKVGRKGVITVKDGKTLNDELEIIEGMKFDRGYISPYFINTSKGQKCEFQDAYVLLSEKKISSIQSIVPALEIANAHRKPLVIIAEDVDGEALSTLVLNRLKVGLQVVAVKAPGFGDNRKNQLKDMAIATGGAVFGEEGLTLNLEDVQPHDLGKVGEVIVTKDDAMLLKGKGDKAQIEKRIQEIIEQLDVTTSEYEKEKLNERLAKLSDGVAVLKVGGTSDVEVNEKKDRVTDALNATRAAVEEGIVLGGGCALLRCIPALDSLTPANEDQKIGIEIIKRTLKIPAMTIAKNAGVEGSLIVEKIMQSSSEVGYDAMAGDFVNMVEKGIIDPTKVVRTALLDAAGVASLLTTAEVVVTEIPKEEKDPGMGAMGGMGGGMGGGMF
# Sequence (P61604 whole entry, further chain): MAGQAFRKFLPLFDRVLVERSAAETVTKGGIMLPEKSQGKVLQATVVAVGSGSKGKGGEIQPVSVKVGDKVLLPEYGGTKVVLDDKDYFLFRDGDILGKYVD
# Assay method text: Inhibition of human HSP60/HSP10 expressed in Escherichia coli Rosetta2(DE3) cells assessed as inhibition of denatured pig heart MDH refolding by measuring reduction in NADH production incubated for 60 mins by micro plate reader analysis
Kindly state pIC50 for each of the entries shown.
Numbers only, as −log10 of the molar value.

Example cases with answers are listed next.
- Smiles entry: "COC(=O)c1ccc(-c2ccc(/C=C3/SC(=S)NC3=O)o2)cc1"
  Target or system: "HSP60/HSP10 (Homo sapiens)"
  pIC50: 4.80
- Smiles entry: "O=C(NCCO)Nc1ccc2nc(-c3ccco3)c(-c3ccco3)nc2c1"
  Target or system: "HSP60/HSP10 (Homo sapiens)"
  pIC50: 4.82
- Smiles entry: "O=C(/C=C/c1ccc([N+](=O)[O-])cc1)c1ccc(O)c(O)c1"
  Target or system: "HSP60/HSP10 (Homo sapiens)"
  pIC50: 5.28
- Smiles entry: "O=C(Nc1ccc2nc(-c3ccco3)c(-c3ccco3)nc2c1)N1CCCC1"
  Target or system: "HSP60/HSP10 (Homo sapiens)"
  pIC50: 4.89
- Smiles entry: "COc1cc(/C=C2/C(=N)N3N=C(CC(C)C)SC3=NC2=O)ccc1OC(=O)c1ccc(F)cc1"
  Target or system: "HSP60/HSP10 (Homo sapiens)"
  pIC50: 4.59

For every item below, please supply its pIC50.
1. Nc1ccc(Nc2nc(-c3ccc(O)c(O)c3)cs2)cc1
2. O=C(/C=C/c1ccco1)c1ccc(NC(=O)c2cccs2)cc1

Outgoing:
5.00
5.09

====

Kindly state EC50 for each of the entries shown.
# Test system: Staphylococcus aureus
# Assay method text: Antibacterial activity against methicillin resistant Staphylococcus aureus subsp. aureus HPV107 (ATCC BAA-44) assessed as reduction in bacterial growth incubated for 6 to 8 hrs
# Format: functional, organism-based

- Molecule: "O=C(NCCO)Nc1ccc2nc(-c3ccco3)c(-c3ccco3)nc2c1"
  EC50: "> 100 µM"

For every item below, please supply its EC50.
1. COc1cc(/C=C2/C(=N)N3N=C(CC(C)C)SC3=NC2=O)ccc1OC(=O)c1ccc(F)cc1
2. O=C(/C=C/c1cccc([N+](=O)[O-])c1)c1ccc(NC(=O)c2ccco2)cc1
3. CC(=O)c1cc2c(cc1NC(=O)c1ccccc1Br)OCCO2
4. CN[C@@H](CC(C)C)C(=O)N[C@H]1C(=O)N[C@@H](CC(N)=O)C(=O)N[C@H]2C(=O)N[C@H]3C(=O)N[C@H](C(=O)N[C@@H](C(=O)O)c4cc(O)cc(O)c4-c4cc3ccc4O)[C@H](O)c3ccc(c(Cl)c3)Oc3cc2cc(c3O[C@H]2O[C@@H](CO)[C@H](O)[C@@H](O)[C@@H]2O[C@@H]2C[C@@](C)(N)[C@@H](O)[C@@H](C)O2)Oc2ccc(cc2Cl)[C@H]1O
5. O=C(CC1Nc2cccc3cccc(c23)NC1=O)Nc1cccc([N+](=O)[O-])c1 (configuration not stated)
6. Nc1ccc(Nc2nc(-c3ccc(O)c(O)c3)cs2)cc1

Outgoing:
["> 100 µM", "> 100 µM", "> 100 µM", "0.17 µM", "54 µM", "> 100 µM"]

====

# Test system: Bacillus subtilis
# Assay method text: Antibacterial activity against Bacillus subtilis 168 assessed as reduction in bacterial growth incubated for 6 to 8 hrs
# Format: functional, organism-based
# Details: subsp. subtilis str. 168
Parameter measured: EC50

- Compound: "CNC(=O)Oc1c(Br)cc2sc(=O)oc2c1Br"
  Parameter measured: "EC50"
  Recorded value: "43 µM"

For every item below, please supply its EC50.
1. O=C(Nc1ccc(Sc2nc3ccccc3s2)c(Cl)c1)c1cc(Br)cc(Br)c1O
2. O=C(Nc1ccc2nc(-c3ccco3)c(-c3ccco3)nc2c1)N1CCCC1
3. O=C(/C=C/c1cccc([N+](=O)[O-])c1)c1ccc(NC(=O)c2ccco2)cc1
4. Cc1ccc(S(=O)(=O)Nc2ccc(-c3nc4ccc(NS(=O)(=O)c5ccc(C)cc5)cc4[nH]3)cc2)cc1
5. Nc1nnc(SCC(=O)c2ccc(-c3ccccc3)cc2)s1
6. O=C1/C(=C/c2ccc(O)c(O)c2)SC(=S)N1c1ccc(O)cc1
7. O=C(CC1Nc2cccc3cccc(c23)NC1=O)Nc1cccc([N+](=O)[O-])c1 (stereo unspecified)
8. COc1cc(/C=C2/C(=N)N3N=C(CC(C)C)SC3=NC2=O)ccc1OC(=O)c1ccc(F)cc1

Outgoing:
["0.1 µM", "> 100 µM", "> 100 µM", "> 100 µM", "> 100 µM", "25 µM", "72 µM", "13 µM"]

For every item below, please supply its EC50.
1. O=C(/C=C/c1ccco1)c1ccc(NC(=O)c2cccs2)cc1
2. COc1ccc(C(=O)N/N=C/c2ccc(O)c3ncccc23)cc1
3. Nc1ccc(Nc2nc(-c3ccc(O)c(O)c3)cs2)cc1
4. O=c1c([N+](=O)[O-])c(Cl)c2ccccc2n1Cc1ccccc1
5. COc1cccc(/C=C2/SC(=S)N(CCC(=O)Nc3ccc(O)cc3)C2=O)c1
6. O=C(/C=C/c1ccc([N+](=O)[O-])cc1)c1ccc(O)c(O)c1
7. CC(=O)c1cc2c(cc1NC(=O)c1ccccc1Br)OCCO2

Outgoing:
1. > 100 µM
2. 83 µM
3. > 100 µM
4. 2.8 µM
5. > 100 µM
6. > 100 µM
7. > 100 µM

For every item below, please supply its EC50.
1. O=C(Nc1cc([N+](=O)[O-])ccc1O)c1ccc2c(c1)C(=O)N(Cc1ccccc1)C2=O
2. O=C(NCCO)Nc1ccc2nc(-c3ccco3)c(-c3ccco3)nc2c1
3. Cn1c(=O)c(C(=O)Nc2ccncc2)c(O)c2ccccc21

Outgoing:
1. > 100 µM
2. > 100 µM
3. 0.47 µM

For every item below, please supply its EC50.
1. CNC(=O)Nc1ccc2nc(-c3ccco3)c(-c3ccco3)nc2c1
2. COC(=O)c1ccc(-c2ccc(/C=C3/SC(=S)NC3=O)o2)cc1

Outgoing:
1. > 100 µM
2. 16 µM
